Test system: NCI-H510A;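 note: growth inhibition of NCI-H510A cells, read out with a cell viability assay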
assay-explanation: cells
Format: functional, cell-based
reported-conditions: Homo sapiens
Description: SANGER: Inhibition of human NCI-H510A cell growth in a cell viability assay.
Would you mind telling me the reported IC50 of each entry?

Ask | What does the record list as IC50 for Cc1[nH]c(/C=C2\C(=O)Nc3ccc(S(=O)(=O)Cc4c(Cl)cccc4Cl)cc32)c(C)c1C(=O)N1CCC[C@@H]1CN1CCCC1 ?
Reply | > 2000 nM

Ask | Then Cc1nc(Nc2ncc(C(=O)Nc3c(C)cccc3Cl)s2)cc(N2CCN(CCO)CC2)n1 ?
Reply | > 1280 nM

Ask | Another molecule to look at: Cc1n[nH]c2ccc(-c3cncc(OC[C@@H](N)Cc4c[nH]c5ccccc45)c3)cc12
Reply | 229 nM

---

System: LU-165
assay-explanation: cells
Assay type: functional, cell-based
reported-conditions: Homo sapiens
Description: SANGER: Inhibition of human LU-165 cell growth in a cell viability assay.
Exercise: for every item that follows, state its recorded IC50.

Ask | Form field: reported IC50 of CCNC(=O)c1noc(-c2cc(C(C)C)c(O)cc2O)c1-c1ccc(CN2CCOCC2)cc1
Reply | 154 nM

Ask | // query: CO[C@@]12[C@H](COC(N)=O)C3=C(C(=O)C(C)=C(N)C3=O)N1C[C@@H]1N[C@@H]12
Reply | 513 nM

Ask | Queued: C/C(O)=C(\C#N)C(=O)Nc1cc(Br)ccc1Br
Reply | > 16000 nM

Ask | Lookup Fc1cc(-c2cc[nH]/c(=N/c3ccc(-n4cnc(N5CCOCC5)n4)cc3)n2)cc(N2CCOCC2)c1
Reply | 825 nM

Ask | Same read-out for C/C=C(/C)C(=O)O[C@H]1C(C)=C2[C@H]([C@@H]1OC(=O)CCCCCCC)[C@@](C)(OC(C)=O)C[C@H](OC(=O)CCC)[C@@]1(O)[C@H]2OC(=O)[C@@]1(C)O ?
Reply | > 512 nM

---

Test system: ONS-76
assay-explanation: cells
Type: functional, cell-based
reported-conditions: Homo sapiens
Description: SANGER: Inhibition of human ONS-76 cell growth in a cell viability assay.
Exercise: state measured IC50 for each of the compounds provided.
Reply numerically in nM, unit not repeated.

Ask | Entry under review: CCNC(=O)c1noc(-c2cc(C(C)C)c(O)cc2O)c1-c1ccc(CN2CCOCC2)cc1 . Reported IC50?
Reply | 29.5

Ask | Next compound up: C/C=C(/C)C(=O)O[C@H]1C(C)=C2[C@H]([C@@H]1OC(=O)CCCCCCC)[C@@](C)(OC(C)=O)C[C@H](OC(=O)CCC)[C@@]1(O)[C@H]2OC(=O)[C@@]1(C)O
Reply | 9.98

Ask | Now give it for CO[C@@]12[C@H](COC(N)=O)C3=C(C(=O)C(C)=C(N)C3=O)N1C[C@@H]1N[C@@H]12 too.
Reply | 330

Ask | Next up: Cc1ccc(NC(=O)c2cccc(C(C)(C)C#N)c2)cc1Nc1ccc2ncn(C)c(=O)c2c1
Reply | 167

---

Would you mind telling me the reported pIC50 of each entry?
Tested on: EVSA-T
assay-explanation: cells
Type: functional, cell-based
reported-conditions: Homo sapiens
Description: SANGER: Inhibition of human EVSA-T cell growth in a cell viability assay.
Remember the convention: pIC50 equals -log10 of concentration in molar.

Ask | GET /values?readout=pIC50&system=EVSA-T&item= CCNC(=O)c1noc(-c2cc(C(C)C)c(O)cc2O)c1-c1ccc(CN2CCOCC2)cc1
Reply | 7.03

Ask | Then what about the compound CC(C)=CC[C@@H](O)C1=CC(=O)c2c(O)ccc(O)c2C1=O ?
Reply | 6.39

Ask | Now the compound Fc1cc(-c2cc[nH]/c(=N/c3ccc(-n4cnc(N5CCOCC5)n4)cc3)n2)cc(N2CCOCC2)c1
Reply | 5.90
